The reported measurements were obtained from patent US20250195463A1.

Test system: SK-BR-3 (FGFR+)
procedure-summary: MTT cytotoxicity assay
measurement-context: human, 48 h
pIC50: −log10 of the molar value. Where a SMILES comes first, the peptide text is derived from it. [ ]: non-standard residue; d: D form. The star is where a group is joined. Levulinoyl = CC(=O)CCC(=O)*
test-readout: pIC50

Task item: Form: Entry = CC(=O)CCC(=O)N[C@@H](C(=O)N[C@@H](CO)C(=O)N1CCC[C@H]1C(=O)N1CCC[C@@H]1C(=O)N[C@@H](CC(C)C)C(=O)N[C@H](C(=O)N[C@@H](CC(C)C)C(=O)NCC(=O)N[C@@H](CCC(N)=O)C(=O)N[C@@H](CC(C)C)C(=O)N[C@@H](CC(C)C)C(=O)N[C@@H](CO)C(N)=O)[C@@H](C)O)C(C)C [peptide P2] (Levulinoyl-[dV]SP[dP]LTLGQLLS-NH2) | System = SK-BR-3 (FGFR+) | pIC50 = ____
Reply: < 4.00

---

procedure-summary: Stability in organic medium (dimethyl sulfoxide) by UV-Vis spectroscopy
Type: physicochemical
measurement-context: time 5 h, band 357-425 nm (λmax in column head)
Protocol: The stability of the complexes 4-11 in organic and aqueous media was evaluated over 24 h by UV-Vis spectroscopy at room temperature, in dark, on a Jasco V-660 spectrometer using quartz cuvettes (1 cm optical path length). […]
test-readout: Relative variation of the maximum absorbance of the charge transfer bands
Phrase the answer as number then unit, nothing more needed.

- CCOC(=O)Oc1cc[n+]2c(c1)-c1cc(OC)cc[n+]1[Ru-]2([CH]1C=CC=C1)[PH](c1ccccc1)(c1ccccc1)c1ccccc1.O=S(=O)([O-])C(F)(F)F (centres unmarked) [compound 11]: −0.3%
- CC(=O)C1=C[CH]([Ru-]2([PH](c3ccccc3)(c3ccccc3)c3ccccc3)[n+]3ccccc3-c3cccc[n+]32)C=C1.O=S(=O)([O-])C(F)(F)F (centres unmarked) [compound 5]: 0.5%
- CC(=O)C1=C[CH]([Ru-]2([PH](c3ccccc3)(c3ccccc3)c3ccccc3)[n+]3cccc4ccc5ccc[n+]2c5c43)C=C1.O=S(=O)([O-])C(F)(F)F (centres unmarked) [compound 6]: −0.2%
- O=C(Cc1ccccc1)C1=C[CH]([Ru-]2([PH](c3ccccc3)(c3ccccc3)c3ccccc3)[n+]3ccccc3-c3cccc[n+]32)C=C1.O=S(=O)([O-])C(F)(F)F (centres unmarked) [compound 9]: 0.4%
- CCC(=O)C1=C[CH]([Ru-]2([PH](c3ccccc3)(c3ccccc3)c3ccccc3)[n+]3ccccc3-c3cccc[n+]32)C=C1.O=S(=O)([O-])C(F)(F)F (centres unmarked) [compound 8]: −0.3%
- NNC(=O)C1=C[CH]([Ru-]2([PH](c3ccccc3)(c3ccccc3)c3ccccc3)[n+]3ccccc3-c3cccc[n+]32)C=C1.O=S(=O)([O-])C(F)(F)F (centres unmarked) [compound 4]: 1.0%

Task item: Consider the molecule shown here: CC(=O)C1=C[CH]([Ru-]2([PH](c3ccccc3)(c3ccccc3)c3ccccc3)[n+]3cccc4c5nccnc5c5ccc[n+]2c5c43)C=C1.O=S(=O)([O-])C(F)(F)F (centres unmarked) [compound 7] What is its recorded Relative variation of the maximum absorbance of the charge transfer bands?
Reply: −0.3%

Task item: Consider the molecule shown here: COc1cc[n+]2c(c1)-c1cc(O)cc[n+]1[Ru-]2([CH]1C=CC=C1)[PH](c1ccccc1)(c1ccccc1)c1ccccc1.O=S(=O)([O-])C(F)(F)F (centres unmarked) [compound 10] What is its recorded Relative variation of the maximum absorbance of the charge transfer bands?
Reply: 3.2%
